Below is a list of entries, each paired with its recorded apparent Kd (screen) value.
Biological target: T1, TNFR1 (Homo sapiens, UniProt P19438)
T1 chain: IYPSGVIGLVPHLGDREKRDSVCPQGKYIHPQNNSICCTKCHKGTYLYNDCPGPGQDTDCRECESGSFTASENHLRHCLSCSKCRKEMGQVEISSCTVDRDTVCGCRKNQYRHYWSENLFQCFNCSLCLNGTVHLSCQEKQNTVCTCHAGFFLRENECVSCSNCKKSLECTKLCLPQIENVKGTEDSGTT
Assay: yeast display SC50

BINDER: A94P (designed binder) MTLQELLREEALRRAEAEAFRYALELLAEKFPEQKEYLLDLAEEIESQIRSLSGVDVEDVRKFLDKEWAWVKELLAEHPAELAEVEAARAARLPELRAEVEAKVAA
apparent Kd (screen): 0.956 nM
--
BINDER: L52T (designed binder) MTLQELLREEALRRAEAEAFRYALELLAEKFPEQKEYLLDLAEEIESQIRSTSGVDVEDVRKFLDKEWAWVKELLAEHPAELAEVEAARAARLAELRAEVEAKVAA
apparent Kd (screen): 0.593 nM
--
BINDER: L96G (designed binder) MTLQELLREEALRRAEAEAFRYALELLAEKFPEQKEYLLDLAEEIESQIRSLSGVDVEDVRKFLDKEWAWVKELLAEHPAELAEVEAARAARLAEGRAEVEAKVAA
apparent Kd (screen): 2.48 nM
--
BINDER: R13P (designed binder) MTLQELLREEALPRAEAEAFRYALELLAEKFPEQKEYLLDLAEEIESQIRSLSGVDVEDVRKFLDKEWAWVKELLAEHPAELAEVEAARAARLAELRAEVEAKVAA
apparent Kd (screen): 11.4 nM
